# Test system: Plasmodium falciparum K1
# ASSAY TEXT: WHO-TDR: Malaria
# Assay type: functional, organism-based, Homo sapiens
# ASSAY SETUP: Erythrocyte
RECORDED METRIC: IC50 (µg/mL)

substance_smiles=O=C(CCCSc1ccccc1)N(Cc1ccncc1)c1nc2c(F)cccc2s1 recorded_metric=IC50 experimental_value=9.05

P = Cc1cc(C)c(S(=O)(=O)N2CCN(c3ccc(Nc4ccncc4)nn3)CC2)cc1C
Q = O=C(CSc1nnc(NC(=O)c2cc(Cl)ccc2Cl)s1)Nc1ccc2c(c1)OCO2
R = O=S(=O)(c1cccc(F)c1)N1CCN(c2ccc(Nc3cccnc3)nn2)CC1
Query: Order the records by IC50, with each subsequent value no larger than the one before. I would appreciate it if you listed the labels in the requested order.
Response: Q, R, P
(Q: 8.18 µg/mL, R: 5.44 µg/mL, P: 0.473 µg/mL)
